- METHOD: Antioxidant activity assessed as ABTS radical scavenging activity after 10 mins by UV-Visible spectrophotometric analysis
- Format: physicochemical
READOUT LABEL: IC50 (µg/mL)

Please review the entries below; each comes with its answer.
[[record]]
query_smiles = "CCC(=O)c1ccc2nc(NCCCCOc3cc(O)c4c(=O)cc(-c5ccccc5)oc4c3)sc2c1"
readout_label = "IC50"
reported_value = 7.157

[[record]]
query_smiles = "N#Cc1ccc2nc(NCCCCOc3cc(O)c4c(=O)cc(-c5ccccc5)oc4c3)sc2c1"
readout_label = "IC50"
reported_value = 6.543

[[record]]
query_smiles = "O=c1cc(-c2ccccc2)oc2cc(OCCCCNc3nc4c(F)cc(F)cc4s3)cc(O)c12"
readout_label = "IC50"
reported_value = 5.764


(A) Cc1ccc2nc(NCCCCOc3cc(O)c4c(=O)cc(-c5ccccc5)oc4c3)sc2c1
(B) O=c1cc(-c2ccccc2)oc2cc(OCCCCNc3nc4ccc(F)cc4s3)cc(O)c12
Form: Entry with minimum IC50 (choose one): A / B Answer with the label corresponding to your selection.
B
(B: 5.246 µg/mL, A: 8.785 µg/mL)

====

- METHOD: Antioxidant activity assessed as DPPH radical scavenging activity after 25 mins by UV-Visible spectrophotometric analysis
- Type: physicochemical
READOUT LABEL: IC50 (µg/mL)

Please review the entries below; each comes with its answer.
[[record]]
compound = "O=C1O[C@H]([C@@H](O)CO)C(O)=C1O [ASCORBIC ACID]"
reported_value = 12.72

[[record]]
compound = "O=c1cc(-c2ccccc2)oc2cc(OCCCCNc3nc4ccccc4s3)cc(O)c12"
reported_value = 26.45

[[record]]
compound = "Cc1ccc2nc(NCCCCOc3cc(O)c4c(=O)cc(-c5ccccc5)oc4c3)sc2c1"
reported_value = 28.13


(a) O=c1cc(-c2ccccc2)oc2cc(OCCCCNNc3nc4ccccc4s3)cc(O)c12
(b) CCCC(=O)c1ccc2nc(NCCCCOc3cc(O)c4c(=O)cc(-c5ccccc5)oc4c3)sc2c1
(c) O=c1cc(-c2ccccc2)oc2cc(OCCCCNc3nc4c(F)cc(F)cc4s3)cc(O)c12
Ordering criterion: IC50; begin with the maximum. Please, when replying, give the labels in the order that was requested.
b, a, c
(b: 38.98 µg/mL, a: 24.34 µg/mL, c: 15.12 µg/mL)

====

- METHOD: Antioxidant activity assessed as ABTS radical scavenging activity after 10 mins by UV-Visible spectrophotometric analysis
- Type: physicochemical
READOUT LABEL: IC50 (µg/mL)

(I) O=c1cc(-c2ccccc2)oc2cc(OCCCCNc3nc4ccc(Cl)cc4s3)cc(O)c12
(II) O=c1cc(-c2ccccc2)oc2cc(OCCCCNNc3nc4ccccc4s3)cc(O)c12
Hi team, can someone confirm which has the larger IC50: I or II ? Thanks. Answer with the label corresponding to your selection.
II
(II: 8.734 µg/mL, I: 4.156 µg/mL)

(P) O=C1O[C@H]([C@@H](O)CO)C(O)=C1O
(Q) COc1ccc2nc(NCCCCOc3cc(O)c4c(=O)cc(-c5ccccc5)oc4c3)sc2c1
Form: Entry with minimum IC50 (choose one): P / Q Answer with the label corresponding to your selection.
P
(P: 5.0925 µg/mL, Q: 7.356 µg/mL)

(1) O=c1cc(-c2ccccc2)oc2cc(OCCCCNc3nc4ccc(C(F)(F)F)cc4s3)cc(O)c12
(2) O=c1cc(-c2ccccc2)oc2cc(OCCCCNc3nc4ccc([N+](=O)[O-])cc4s3)cc(O)c12
Form: Entry with minimum IC50 (choose one): 1 / 2 Answer with the label corresponding to your selection.
1
(1: 4.953 µg/mL, 2: 8.135 µg/mL)

====

Each item that follows carries a reported CC50.
- Tested on: MDCK
- METHOD: Cytotoxicity against MDCK cells after 48 hrs by SRB assay
- Assay type: cell-based
- TEST PARAMETERS: Canis lupus familiaris
Answer format: numeric, µg/mL implied, no suffix.

Tell me the measured CC50 of O=c1cc(-c2ccccc2)oc2cc(OCCCCNc3nc4c(F)cc(F)cc4s3)cc(O)c12 , please.
307

Tell me the measured CC50 of O=C(O)c1ccc2nc(NCCCCOc3cc(O)c4c(=O)cc(-c5ccccc5)oc4c3)sc2c1 , please.
324

Tell me the measured CC50 of O=c1cc(-c2ccccc2)oc2cc(OCCCCNNc3nc4ccccc4s3)cc(O)c12 , please.
316

Tell me the measured CC50 of CC(=O)c1ccc2nc(NCCCCOc3cc(O)c4c(=O)cc(-c5ccccc5)oc4c3)sc2c1 , please.
311

Tell me the measured CC50 of O=c1cc(-c2ccccc2)oc2cc(OCCCCNc3nc4ccc(I)cc4s3)cc(O)c12 , please.
298

Tell me the measured CC50 of O=c1cc(-c2ccccc2)oc2cc(OCCCCNc3nc4ccccc4s3)cc(O)c12 , please.
348

Tell me the measured CC50 of CCC(=O)c1ccc2nc(NCCCCOc3cc(O)c4c(=O)cc(-c5ccccc5)oc4c3)sc2c1 , please.
296

====

- METHOD: Antioxidant activity assessed as ABTS radical scavenging activity after 10 mins by UV-Visible spectrophotometric analysis
- Type: physicochemical
READOUT LABEL: IC50 (µg/mL)

[[record]]
query_smiles = "CC(=O)c1ccc2nc(NCCCCOc3cc(O)c4c(=O)cc(-c5ccccc5)oc4c3)sc2c1"
unit_info = "µg/mL"
reported_value = 7.026

[[record]]
query_smiles = "CCCC(=O)c1ccc2nc(NCCCCOc3cc(O)c4c(=O)cc(-c5ccccc5)oc4c3)sc2c1"
unit_info = "µg/mL"
reported_value = 8.535

[[record]]
query_smiles = "CC(=O)Nc1ccc2nc(NCCCCOc3cc(O)c4c(=O)cc(-c5ccccc5)oc4c3)sc2c1"
unit_info = "µg/mL"
reported_value = 8.355

[[record]]
query_smiles = "O=c1cc(-c2ccccc2)oc2cc(OCCCCNc3nc4ccc(I)cc4s3)cc(O)c12"
unit_info = "µg/mL"
reported_value = 9.836


====

- METHOD: Antioxidant activity assessed as DPPH radical scavenging activity after 25 mins by UV-Visible spectrophotometric analysis
- Assay type: physicochemical
READOUT LABEL: IC50 (µg/mL)

Please review the entries below; each comes with its answer.
[[record]]
query_smiles = "CC(=O)c1ccc2nc(NCCCCOc3cc(O)c4c(=O)cc(-c5ccccc5)oc4c3)sc2c1"
reported_value = 30.72

[[record]]
query_smiles = "O=c1cc(-c2ccccc2)oc2cc(OCCCCNc3nc4ccc(Cl)cc4s3)cc(O)c12"
reported_value = 13.16


(a) COc1ccc2nc(NCCCCOc3cc(O)c4c(=O)cc(-c5ccccc5)oc4c3)sc2c1
(b) N#Cc1ccc2nc(NCCCCOc3cc(O)c4c(=O)cc(-c5ccccc5)oc4c3)sc2c1
Hi team, can someone confirm which has the larger IC50: a or b ? Thanks. Answer with the label corresponding to your selection.
a
(a: 23.87 µg/mL, b: 15.56 µg/mL)

(I) CC(=O)Nc1ccc2nc(NCCCCOc3cc(O)c4c(=O)cc(-c5ccccc5)oc4c3)sc2c1
(II) O=c1cc(-c2ccccc2)oc2cc(OCCCCNc3nc4ccc(C(F)(F)F)cc4s3)cc(O)c12
Hi team, can someone confirm which has the larger IC50: I or II ? Thanks. Answer with the label corresponding to your selection.
I
(I: 29.16 µg/mL, II: 16.27 µg/mL)

(P) CCC(=O)c1ccc2nc(NCCCCOc3cc(O)c4c(=O)cc(-c5ccccc5)oc4c3)sc2c1
(Q) O=C(O)c1ccc2nc(NCCCCOc3cc(O)c4c(=O)cc(-c5ccccc5)oc4c3)sc2c1
Hi team, can someone confirm which has the larger IC50: P or Q ? Thanks. Answer with the label corresponding to your selection.
P
(P: 32.23 µg/mL, Q: 21.66 µg/mL)

(1) O=c1cc(-c2ccccc2)oc2cc(OCCCCNc3nc4ccc([N+](=O)[O-])cc4s3)cc(O)c12
(2) O=c1cc(-c2ccccc2)oc2cc(OCCCCNc3nc4ccc(F)cc4s3)cc(O)c12
Form: Entry with minimum IC50 (choose one): 1 / 2 Answer with the label corresponding to your selection.
2
(2: 14.74 µg/mL, 1: 30.25 µg/mL)

(A) CCOc1ccc2nc(NCCCCOc3cc(O)c4c(=O)cc(-c5ccccc5)oc4c3)sc2c1
(B) O=c1cc(-c2ccccc2)oc2cc(OCCCCNc3nc4ccc(Br)cc4s3)cc(O)c12
Form: Entry with minimum IC50 (choose one): A / B Answer with the label corresponding to your selection.
B

====

- METHOD: Antioxidant activity assessed as ABTS radical scavenging activity after 10 mins by UV-Visible spectrophotometric analysis
- Format: physicochemical
READOUT LABEL: IC50 (µg/mL)

[[record]]
query_smiles = "O=c1cc(-c2ccccc2)oc2cc(OCCCCNc3nc4ccc(Br)cc4s3)cc(O)c12"
unit_info = "µg/mL"
reported_value = 6.565

[[record]]
query_smiles = "CCOc1ccc2nc(NCCCCOc3cc(O)c4c(=O)cc(-c5ccccc5)oc4c3)sc2c1"
unit_info = "µg/mL"
reported_value = 8.853

[[record]]
query_smiles = "O=c1cc(-c2ccccc2)oc2cc(OCCCCNc3nc4ccccc4s3)cc(O)c12"
unit_info = "µg/mL"
reported_value = 8.567

[[record]]
query_smiles = "O=C(O)c1ccc2nc(NCCCCOc3cc(O)c4c(=O)cc(-c5ccccc5)oc4c3)sc2c1"
unit_info = "µg/mL"
reported_value = 6.742


From: ChEMBL document CHEMBL3632617
